test system: ATP; assay: switch fluorescence ratio, 500 uM ATP over buffer (Cy3 cluster intensity, sum of 5 cycles each) (fold (ratio)); higher = stronger signal-on switching upon ATP binding; sequences stand for … in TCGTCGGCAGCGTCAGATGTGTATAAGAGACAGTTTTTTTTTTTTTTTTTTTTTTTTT…TC; conditions: aptamer strand: ATP DNA aptamer (quencher-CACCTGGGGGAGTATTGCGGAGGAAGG + anchor), 100 nM annealed; ATP concentration: 500 uM;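 further: ATP exposure 15 min at 22 °C before imaging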
Assign switch fluorescence ratio to each entry below.

Given "TTTTGCCGAT" , state its recorded switch fluorescence ratio.
0.989

Give its switch fluorescence ratio value. Item: "CGTGATGGTT"
0.983

What value of switch fluorescence ratio has been reported for the following sequence? "ATTCGCGAGG"
0.982

What value of measured switch fluorescence ratio is listed for "CAGTCGGAGA" ?
1.02

Query: switch fluorescence ratio; subject: "TTTCTCATTT"
0.972

Please report the recorded switch fluorescence ratio for "CGGTGCTGGG" .
0.999

Sample "TTTAGTGAGG" — what was its switch fluorescence ratio?
0.974
